procedureSummary: Selectivity index, ratio of CC50 for human THP1 cells to EC50 for Leishmania infantum amastigote form
Assay type: toxicity
runConditions: read-out: Ratio CC50/EC50
measurementLabel: selectivity ratio
Reply with just the number.

Field request: selectivity ratio | item: NC(=S)N/N=C/c1ccc(OCc2ccc(Cl)c(Cl)c2)cc1
13

====

targetSystem: hERG (KCNH2) (Homo sapiens, UniProt Q12809)
Sequence (Q12809 whole entry): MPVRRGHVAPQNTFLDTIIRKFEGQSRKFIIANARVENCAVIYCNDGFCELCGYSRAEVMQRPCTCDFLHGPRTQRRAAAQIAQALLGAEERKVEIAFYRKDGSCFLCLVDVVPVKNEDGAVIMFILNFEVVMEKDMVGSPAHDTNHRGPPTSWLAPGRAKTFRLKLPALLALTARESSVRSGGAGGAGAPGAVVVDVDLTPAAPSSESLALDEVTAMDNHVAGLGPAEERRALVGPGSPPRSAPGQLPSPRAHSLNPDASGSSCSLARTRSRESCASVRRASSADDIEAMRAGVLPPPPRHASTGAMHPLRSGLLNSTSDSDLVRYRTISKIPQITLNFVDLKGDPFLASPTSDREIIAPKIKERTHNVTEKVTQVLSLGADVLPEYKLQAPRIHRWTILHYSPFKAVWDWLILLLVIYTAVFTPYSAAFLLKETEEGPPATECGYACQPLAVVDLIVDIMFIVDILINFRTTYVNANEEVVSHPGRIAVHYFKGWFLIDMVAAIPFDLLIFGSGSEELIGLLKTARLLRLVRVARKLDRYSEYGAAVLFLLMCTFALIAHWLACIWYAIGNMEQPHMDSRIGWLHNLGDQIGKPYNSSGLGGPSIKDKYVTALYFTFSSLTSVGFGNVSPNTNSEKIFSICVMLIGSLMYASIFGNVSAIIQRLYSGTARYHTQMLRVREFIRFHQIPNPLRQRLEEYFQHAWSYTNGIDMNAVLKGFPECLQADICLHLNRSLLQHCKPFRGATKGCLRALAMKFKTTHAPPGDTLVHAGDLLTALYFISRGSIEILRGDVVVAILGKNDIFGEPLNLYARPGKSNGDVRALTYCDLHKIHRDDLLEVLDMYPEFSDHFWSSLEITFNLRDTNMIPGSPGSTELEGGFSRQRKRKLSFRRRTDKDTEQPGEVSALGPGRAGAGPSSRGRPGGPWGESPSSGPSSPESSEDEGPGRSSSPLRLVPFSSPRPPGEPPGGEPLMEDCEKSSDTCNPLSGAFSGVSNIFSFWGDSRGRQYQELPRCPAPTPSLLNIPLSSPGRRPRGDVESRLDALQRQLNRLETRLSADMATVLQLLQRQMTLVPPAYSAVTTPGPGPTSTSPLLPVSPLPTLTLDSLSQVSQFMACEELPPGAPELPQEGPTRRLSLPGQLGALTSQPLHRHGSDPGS
procedureSummary: Inhibition of human ERG at 10 uM incubated for 2 hrs by fluorescence polarisation assay relative to control
Each entry below carries its reported inhibition at 2 h, 10 µM.
Give a bare numeral; the unit % is implied.

Take a look at these entries with their results.
>  <compound>
NC(=S)N/N=C/c1ccc(O)cc1

>  <targetSystem>
hERG (KCNH2) (Homo sapiens, UniProt Q12809)

>  <measurementUnits>
%

>  <inhibition at 2 h, 10 µM>
7.48

$$$$
>  <compound>
NC(=S)N/N=C/c1ccc(O)c(O)c1

>  <targetSystem>
hERG (KCNH2) (Homo sapiens, UniProt Q12809)

>  <measurementUnits>
%

>  <inhibition at 2 h, 10 µM>
4.17

$$$$
>  <compound>
NC(=S)N/N=C/c1ccco1

>  <targetSystem>
hERG (KCNH2) (Homo sapiens, UniProt Q12809)

>  <measurementUnits>
%

>  <inhibition at 2 h, 10 µM>
-7.97

$$$$
>  <compound>
NC(=S)N/N=C/c1ccc2ncccc2c1

>  <targetSystem>
hERG (KCNH2) (Homo sapiens, UniProt Q12809)

>  <measurementUnits>
%

>  <inhibition at 2 h, 10 µM>
-13.2

$$$$
>  <compound>
NC(=S)N/N=C/C(O)C(O)C(O)CO (centres undefined)

>  <targetSystem>
hERG (KCNH2) (Homo sapiens, UniProt Q12809)

>  <measurementUnits>
%

>  <inhibition at 2 h, 10 µM>
-11.1

$$$$

Field request: inhibition at 2 h, 10 µM | item: CSc1ccc(/C=N/NC(N)=S)cc1
-2.87

Then this compound: C/C(=N\NC(N)=S)c1ccc(O)cc1
3.53

Then this compound: CN(C)c1ccc(/C=N/N=C(/N)S)c2ccccc12
43

Then this compound: N/C(S)=N/N=C/c1ccc(Cl)c(Cl)c1
-9.32

====

procedureSummary: Selectivity index, ratio of CC50 for human U2OS cells to EC50 for Trypanosoma cruzi amastigote form
Format: toxicity
runConditions: read-out: Ratio CC50/EC50
measurementLabel: selectivity ratio

>  <compoundStructure>
NC(=S)N/N=C/c1ccco1

>  <measurementLabel>
selectivity ratio

>  <reportedResult>
> 1

$$$$
>  <compoundStructure>
NC(=S)N/N=C/c1ccc(OCc2ccc(Cl)c(Cl)c2)cc1

>  <measurementLabel>
selectivity ratio

>  <reportedResult>
55

$$$$
>  <compoundStructure>
CSc1ccc(/C=N/NC(N)=S)cc1

>  <measurementLabel>
selectivity ratio

>  <reportedResult>
> 17

$$$$
>  <compoundStructure>
NC(=S)N/N=C/c1ccc(-c2ccccc2)cc1

>  <measurementLabel>
selectivity ratio

>  <reportedResult>
> 1

$$$$
>  <compoundStructure>
N/C(S)=N/N=C/c1cccc(Br)c1

>  <measurementLabel>
selectivity ratio

>  <reportedResult>
> 1

$$$$

Field request: selectivity ratio | item: NC(=S)N/N=C/C=C/c1ccccc1
> 1

====

Each entry below carries its reported inhibition of growth at 50 µM.
Test system: Trypanosoma cruzi
procedureSummary: Antitrypanosomal activity against Trypanosoma cruzi amastigote form infected in human U2OS cells assessed as parasite growth inhibition at 50 uM after 72 hrs relative to control
Assay type: functional
runConditions: read-out: GI
Give a bare numeral; the unit % is implied.

Take a look at these entries with their results.
>  <compoundStructure>
COc1cccc(OC)c1/C=N/NC(N)=S

>  <measurementUnits>
%

>  <inhibition of growth at 50 µM>
74.3

$$$$
>  <compoundStructure>
NC(=S)N/N=C/c1ccc(-c2ccccc2)cc1

>  <measurementUnits>
%

>  <inhibition of growth at 50 µM>
95.2

$$$$
>  <compoundStructure>
NC(=S)N/N=C/c1cccc(-c2ccc3c(c2)OCO3)c1

>  <measurementUnits>
%

>  <inhibition of growth at 50 µM>
71.3

$$$$
>  <compoundStructure>
NC(=S)N/N=C/c1ccc2ncccc2c1

>  <measurementUnits>
%

>  <inhibition of growth at 50 µM>
53.8

$$$$
>  <compoundStructure>
Cc1ccsc1/C=N/NC(N)=S

>  <measurementUnits>
%

>  <inhibition of growth at 50 µM>
24.9

$$$$
>  <compoundStructure>
NC(=S)N/N=C/C=C/c1ccccc1

>  <measurementUnits>
%

>  <inhibition of growth at 50 µM>
94.6

$$$$
>  <compoundStructure>
COc1ccc(-c2cccc(-c3nnc(N)s3)c2)cc1OC

>  <measurementUnits>
%

>  <inhibition of growth at 50 µM>
14.6

$$$$
>  <compoundStructure>
COc1cccc(OC)c1-c1nnc(N)s1

>  <measurementUnits>
%

>  <inhibition of growth at 50 µM>
27.1

$$$$

Form entry - test system: Trypanosoma cruzi; read-out: inhibition of growth at 50 µM; molecule: Nc1nnc(/C=C/c2ccccc2)s1
82

Then this molecule: N/C(S)=N/N=C/c1ccc([N+](=O)[O-])cc1
40.1

Then this molecule: CSc1ccc(/C=N/NC(N)=S)cc1
89.3

====

procedureSummary: Cytotoxicity against human U2OS cells assessed as viable cells at 50 uM after 72 hrs by MTT assay relative to control
Type: cell-based
runConditions: read-out: Activity
measurementLabel: viability at 72 h, 50 µM (%)
Give a bare numeral; the unit % is implied.

Take a look at these entries with their results.
>  <compound>
N/C(S)=N/N=C/c1ccc([N+](=O)[O-])cc1

>  <reportedResult>
85.6

$$$$
>  <compound>
Cc1ccsc1/C=N/NC(N)=S

>  <reportedResult>
95.8

$$$$
>  <compound>
CSc1ccc(/C=N/NC(N)=S)cc1

>  <reportedResult>
42.7

$$$$
>  <compound>
NC(=S)N/N=C/c1ccco1

>  <reportedResult>
112

$$$$
>  <compound>
COc1cccc(OC)c1/C=N/NC(N)=S

>  <reportedResult>
21.7

$$$$
>  <compound>
NC(=S)N/N=C/C(O)C(O)C(O)CO (stereo not drawn)

>  <reportedResult>
146

$$$$
>  <compound>
NC(=S)N/N=C/c1csc2ccccc12

>  <reportedResult>
152

$$$$
>  <compound>
NC(=S)N/N=C/c1cccc(-c2ccccc2)c1

>  <reportedResult>
112

$$$$
>  <compound>
NC(=S)N/N=C/c1cccc(-c2ccc3c(c2)OCO3)c1

>  <reportedResult>
81.5

$$$$
>  <compound>
NC(=S)N/N=C/C=C/c1ccccc1

>  <reportedResult>
76.1

$$$$

Field request: viability at 72 h, 50 µM | item: NC(=S)N/N=C/c1ccc2ncccc2c1
72.5

Then this compound: N/C(S)=N/N=C/c1ccc(Cl)c(Cl)c1
101

Then this compound: COc1ccc(-c2cccc(/C=N/NC(N)=S)c2)cc1OC
26.7

Then this compound: NC(=S)N/N=C/c1ccccc1O
58

Then this compound: C/C(=N\NC(N)=S)c1ccc(O)cc1
90.2

Then this compound: NC(=S)N/N=C/c1ccccc1[N+](=O)[O-]
20.4

Then this compound: NC(=S)N/N=C/c1ccc(-c2ccccc2)cc1
116

Then this compound: COc1cc(/C=N/NC(N)=S)cc(OC)c1OC
65.5

Then this compound: NC(=S)N/N=C/c1ccc(N)cc1
125

====

Tested on: Trypanosoma brucei
procedureSummary: Antitrypanosomal activity against Trypanosoma brucei Lister 427 bloodstream form after 72 hrs by SYBR Green assay
Format: functional, organism-based
runConditions: Lister 427, 72 h
Each entry below carries its reported pEC50.
pEC50 is a log-scale quantity: -log10 of the concentration expressed in molar.

Take a look at these entries with their results.
>  <compoundStructure>
COc1ccc(-c2cccc(/C=N/NC(N)=S)c2)cc1OC

>  <targetSystem>
Trypanosoma brucei

>  <pEC50>
5.13

$$$$
>  <compoundStructure>
NC(=S)N/N=C/c1ccc2ncccc2c1

>  <targetSystem>
Trypanosoma brucei

>  <pEC50>
4.46

$$$$
>  <compoundStructure>
NC(=S)N/N=C/c1ccc(OCc2ccc(Cl)c(Cl)c2)cc1

>  <targetSystem>
Trypanosoma brucei

>  <pEC50>
5.64

$$$$
>  <compoundStructure>
NC(=S)N/N=C/C=C/c1ccccc1

>  <targetSystem>
Trypanosoma brucei

>  <pEC50>
4.77

$$$$
>  <compoundStructure>
CSc1ccc(/C=N/NC(N)=S)cc1

>  <targetSystem>
Trypanosoma brucei

>  <pEC50>
4.35

$$$$

Lab note: next compound to report on.
Field request: pEC50 | item: NC(=S)N/N=C/c1ccccc1O
4.50

====

targetSystem: CYP2C19 (Homo sapiens)
Sequence (P33261 whole entry): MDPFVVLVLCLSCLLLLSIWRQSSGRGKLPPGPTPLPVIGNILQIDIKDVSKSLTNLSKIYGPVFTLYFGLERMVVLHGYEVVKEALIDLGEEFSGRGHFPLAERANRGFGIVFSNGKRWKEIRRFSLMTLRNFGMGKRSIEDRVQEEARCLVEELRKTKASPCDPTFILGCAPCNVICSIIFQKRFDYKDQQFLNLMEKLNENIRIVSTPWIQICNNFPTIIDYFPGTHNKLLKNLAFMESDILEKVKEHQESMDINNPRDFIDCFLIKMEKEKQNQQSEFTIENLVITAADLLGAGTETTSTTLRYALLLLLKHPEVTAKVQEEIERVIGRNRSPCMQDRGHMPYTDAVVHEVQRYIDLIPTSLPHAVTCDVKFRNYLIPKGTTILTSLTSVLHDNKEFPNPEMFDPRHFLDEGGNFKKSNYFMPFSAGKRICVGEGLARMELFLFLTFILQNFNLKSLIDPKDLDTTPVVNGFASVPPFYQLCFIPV
procedureSummary: Inhibition of human microsomal CYP2C19 expressed in baculovirus infected BTI-TN-5B1-4 cells at 10 uM incubated for 30 mins by luciferase assay relative to control
Assay type: ADME
Class definitions on inhibition at 0.5 h, 10 µM: bottom range: < -40%; center range: ≥ -40% and < -20%; top range: ≥ -20%

Please review the following examples before continuing.
>  <molecule>
NC(=S)N/N=C/c1ccc(O)cc1

>  <className>
bottom range

$$$$
>  <molecule>
NC(=S)N/N=C/c1ccc(O)c(O)c1

>  <className>
bottom range

$$$$
>  <molecule>
CN(C)c1ccc(/C=N/N=C(/N)S)c2ccccc12

>  <className>
top range

$$$$
>  <molecule>
NC(=S)N/N=C/c1ccc(-c2ccccc2)cc1

>  <className>
top range

$$$$
>  <molecule>
N/C(S)=N/N=C/c1ccc(Cl)c(Cl)c1

>  <className>
top range

$$$$

Quick check: band for N/C(S)=N/N=C/c1ccc([N+](=O)[O-])cc1
center range

Then this molecule: NC(=S)N/N=C/c1csc2ccccc12
top range

Then this molecule: Cc1ccsc1/C=N/NC(N)=S
center range

Then this molecule: N/C(S)=N/N=C/c1cccc(Br)c1
center range

Then this molecule: NC(=S)N/N=C/C=C/c1ccccc1
center range

Then this molecule: COc1cccc(OC)c1/C=N/NC(N)=S
bottom range

Then this molecule: C/C(=N\NC(N)=S)c1ccc(O)cc1
bottom range

Then this molecule: NC(=S)N/N=C/C(O)C(O)C(O)CO (stereo not drawn)
center range

Then this molecule: COc1ccc(/C=N/NC(N)=S)cc1OC
center range

Then this molecule: COc1ccccc1/C=N/NC(N)=S
bottom range

Then this molecule: CSc1ccc(/C=N/NC(N)=S)cc1
center range
